Tested on: P. falciparum stage V gametocytes
Parameters: BacTiter-Glo ATP luminescence viability of purified stage V gametocytes in 384-well plates, per cent inhibition versus DMSO
Settings: 48 h, 5 µM; inhibitor
Among all 13,000 compounds or so, about 3,200 (25%) showed an effect of 50% or more. Some of the results follow.
value_type: % Inhibition (%)
Response body: numeric value in %, unit text excluded.

CN(Cc1ccccc1)C(=O)CCNS(=O)(=O)c1cc(Br)cnc1N; 18.91

# input // Input: CN(C)CCCn1cncc1-c1ccc2ncnc(Nc3ccc(OCc4ccccc4)cc3)c2c1 . Output its % Inhibition only.
# output 1.652

# input Give me measured % Inhibition, please, for this compound: Cc1nn(-c2ccccc2)nc1C(=O)N(Cc1ccc(-c2ccc(CNCCc3ccc(S(C)(=O)=O)cc3)cn2)cc1)C(C)CN(C)C (stereo not shown)
# output 25.84

----------
System: P. falciparum stage V gametocytes
Parameters: BacTiter-Glo ATP luminescence viability of purified stage V gametocytes in 384-well plates, per cent inhibition versus DMSO
Details: 48 h, 5 µM; inhibitor
The campaign covered roughly 13,000 compounds. About 3,200 (25%) showed an effect of 50% or more. This is one part of the list.
Assign MET to entries whose % Inhibition meets or exceeds 20%; assign NOT MET to the rest.

Solved cases (2 shown):
O=C(c1ccc(Cl)cc1)C1CCN(CCCOc2ccc3c(c2)CCNCC3)CC1; MET
O=C(Nc1cccc(-c2ccc(-c3nc4ccccc4[nH]3)cc2)c1)c1ccncc1; NOT MET

Consider the record given below.
# input Could you verify whether the entry COc1ccc(C(=O)C2CCN(CCCCNC(=O)c3ccc(NC(=O)c4cc(Cl)cc(Cl)c4)cc3)CC2)cc1 shows % Inhibition of no less than 20%?
# output NOT MET

----------
Listed here are compounds together with their documented % Inhibition.
Tested on: P. falciparum stage V gametocytes
Design: BacTiter-Glo ATP luminescence viability of purified stage V gametocytes in 384-well plates, per cent inhibition versus DMSO
Details: 48 h, 5 µM; inhibitor
In all, about 13,000 compounds went through this assay and about 3,200 (25%) showed an effect of 50% or more. The list shows a part of the results.
Lab book: enter the figure in %, no units written.

Reference set (3 entries):
Cc1cccc2sc(N(CCCn3ccnc3)C(=O)C=Cc3cccs3)nc12 [TCMDC-124929]; 30.83
COc1ccc(CC(=O)NC(CCCN2CCC(c3ccccc3)CC2)c2ccc(Cl)c(Cl)c2)cc1OC (stereo not shown) [TCMDC-141901]; -2.836
Cc1ccccc1C1CCN(C2CCC(NC(=O)/C=C/c3cc(F)ccc3F)CC2)CC1 (stereo not shown) [TCMDC-133510]; -90.23

Now, please, on to the next compound.
# input Write down % Inhibition measured for item CCOC(=O)CNCC(=O)c1ccc(OCc2ccccc2)cc1 [TCMDC-131777]
# output 33.46

----------
System: P. falciparum stage V gametocytes
Design: BacTiter-Glo ATP luminescence viability of purified stage V gametocytes in 384-well plates, per cent inhibition versus DMSO
Settings: 48 h, 5 µM; inhibitor
Among all 13,000 compounds or so, about 3,200 (25%) showed an effect of 50% or more. Some of the results follow.
% Inhibition values, listed per item
Kindly answer with a numeric value in %, unit omitted.

For orientation, consider the following solved cases.
CN(C)CCCOc1cccc(CCNCc2cccc(Oc3ccc(Cl)cc3)c2)c1; 58.44
Cc1c(-c2cccc(CNCCc3ccc(Cl)cc3)c2)cnc(N)c1C; 9.871
O=C(O)C(F)(F)F.c1ccc(CNCc2ccc(-c3ccc(-c4nc5ccccc5[nH]4)cc3)cc2)cc1; -28.39

Next item in the queue.
# input Provide measured % Inhibition on P. falciparum stage V gametocytes for COc1ccc(CNCc2ccc(-c3ccc(-c4nc5ccccc5[nH]4)cc3)cc2)cc1.O=C(O)C(F)(F)F please.
# output 80.88
